These data points were gathered from the supplement of paper PMC11451515.

- System: SEM cells
- assay explanation: cell viability relative to DMSO control; higher = less cytotoxic
- assay context: RPMI 5 mM glucose + 10% FBS; 48 h; 0.569 µM
cell viability listing for selected compounds.
Form entry: value (%) — number only.

Past entries and their recorded results:
C#Cc1cccc(Nc2ncnc3cc(OC)c(OCCCCCCC(=O)NO)cc23)c1 :: 26.5
CO[C@H]1C[C@@H]2CC[C@@H](C)[C@@](O)(O2)C(=O)C(=O)N2CCCC[C@H]2C(=O)O[C@H]([C@H](C)C[C@@H]2CC[C@@H](OCCO)[C@H](OC)C2)CC(=O)[C@H](C)/C=C(/C)[C@@H](O)[C@@H](OC)C(=O)[C@H](C)C[C@H](C)\C=C/C=C\C=C/1C :: 41.5
CN(C)CC/C=C1/c2ccccc2COc2ccc(CC(=O)O)cc21 :: 143
COC(=O)[C@@H](N)CCCNC(=N)N[N+](=O)[O-] :: 90.3
COc1cc(-c2nn(C3CCC(N4CCN(C(C)=O)CC4)CC3)c3ncnc(N)c23)ccc1NC(=O)c1cc2ccccc2n1C (stereo unspecified) :: 132

query: State the recorded cell viability for this entry: `Nc1nc(OCc2ccccc2)c2nc[nH]c2n1`
result: 89.4

====

- Test system: P12-Ichikawa
- assay explanation: cell viability relative to DMSO control; higher = less cytotoxic
- assay context: HPLM + 10% dialyzed FBS; 48 h; 1.71 µM
assay readout: cell viability
Reply with the number and its unit after it.

O=C(CCc1ccc(O)cc1)c1c(O)cc(O)cc1O[C@@H]1O[C@H](CO)[C@@H](O)[C@H](O)[C@H]1O :: 84%
CN(C)C[C@@H]1CC[N]2C=C(C3=C2C=CC=C3)C/4=C(/C(=O)NC4=O)C5=C[N](CCO1)C6=C5C=CC=C6 :: 100%
OC(COC1=C2C(=O)\C=C(/OC2=CC=C1)C([O-])=O)COC3=C4C(=O)\C=C(/OC4=CC=C3)C([O-])=O :: 90.1%
COC1=CC2=C(C=C1OC)[C@H]3[C@@H](CO2)OC4=C(C=CC5=C4\C=C/C(C)(C)O5)C3=O :: 69.7%
Nc1nc(OCc2ccccc2)c2nc[nH]c2n1 :: 118%
COC(=O)[C@@H](N)CCCNC(=N)N[N+](=O)[O-] :: 107%
CCOC1=CC(=CC=C1C/2=N/[C@@](C)(C3=CC=C(Cl)C=C3)[C@](C)(N2C(=O)N4CCN(CC4)CC(=O)N5CCOCC5)C6=CC=C(Cl)C=C6)C(C)(C)C :: 101%
N\C1=N\C2=C(N=C[N]2COC(CO)CO)C(=O)N1 :: 120%
C=CCn1c(=O)c2cnc(Nc3ccc(N4CCN(C)CC4)cc3)nc2n1-c1cccc(C(C)(C)O)n1 :: 43.7%
Cc1ncc([N+](=O)[O-])n1CCO :: 132%

query: // fetch P12-Ichikawa cell viability for `CCOC(=O)[C@H](CCc1ccccc1)N[C@@H](C)C(=O)N1[C@H](C(=O)O)C[C@@H]2CCC[C@@H]21`
result: 126%

query: // fetch P12-Ichikawa cell viability for `Clc1ccccc1CN1CCc2sccc2C1`
result: 59.8%

query: // fetch P12-Ichikawa cell viability for `N[C@@H](CC(=O)N1CCn2c(nnc2C(F)(F)F)C1)Cc1cc(F)c(F)cc1F`
result: 103%

query: // fetch P12-Ichikawa cell viability for `CCN1C[C@]2(OC(=O)c3ccccc3NC(C)=O)CC[C@H](OC)[C@@]34[C@@H]2C[C@@H]([C@@H]13)[C@@]1(O)C[C@H](OC)[C@H]2C[C@@H]4[C@]1(O)[C@H]2OC`
result: 111%

====

cell viability listing for selected compounds.
- Test system: SEM cells
- assay explanation: cell viability relative to DMSO control; higher = less cytotoxic
- assay context: RPMI 5 mM glucose + 10% dialyzed FBS; 48 h; 0.0211 µM
Form entry: value (%) — number only.

O=C1CCc2ccc(OCCCCN3CCN(c4cccc(Cl)c4Cl)CC3)cc2N1 :: 34.9

query: State the recorded cell viability for this entry: COc1cc(-c2nn(C3CCC(N4CCN(C(C)=O)CC4)CC3)c3ncnc(N)c23)ccc1NC(=O)c1cc2ccccc2n1C (stereo not given)
result: 128

query: State the recorded cell viability for this entry: CC(C)NCC(O)c1ccc(NS(C)(=O)=O)cc1 (stereo not given)
result: 104

query: State the recorded cell viability for this entry: `N#CC(=C(/N)Sc1ccccc1N)/C(C#N)=C(\N)Sc1ccccc1N`
result: 151

query: State the recorded cell viability for this entry: `CN(C)CCCNC(=O)c1ccc(-c2cc(O)c3ncccc3c2)cc1`
result: 113

query: State the recorded cell viability for this entry: `CCN(CC)CCN1C(=O)\C(=N/C2=CC=CC=C12)CC3=CC=C(OC)C=C3`
result: 89

====

- System: P12-Ichikawa
- assay explanation: cell viability relative to DMSO control; higher = less cytotoxic
- assay context: HPLM + 10% dialyzed FBS; 48 h; 0.19 µM
cell viability listing for selected compounds.
Form entry: value (%) — number only.

COc1cc(-c2nn(C3CCC(N4CCN(C(C)=O)CC4)CC3)c3ncnc(N)c23)ccc1NC(=O)c1cc2ccccc2n1C (centres undefined) :: 116
Cc1cc(Cl)ccc1OCCCC(=O)NO :: 105
O=C(CCCCCCC(=O)Nc1ccccc1)NO :: 109

Note: attention shifts to another entry.
query: State the recorded cell viability for this entry: `CCN(C)C(=O)Oc1cccc([C@H](C)N(C)C)c1`
result: 105

====

- Test system: P12-Ichikawa
- assay explanation: cell viability relative to DMSO control; higher = less cytotoxic
- assay context: RPMI 5 mM glucose + 10% dialyzed FBS; 48 h; 0.569 µM
cell viability listing for selected compounds.
Form entry: value (%) — number only.

Past entries and their recorded results:
Cc1cc(Cl)ccc1OCCCC(=O)NO :: 100
CCCCCCCCCCCCCCCCCCOP(=O)([O-])OC1CC[N+](C)(C)CC1 :: 115
CC1(C)CC(O)CC(C)(C)N1[O] :: 125
O=C1NC(=O)/C(=C/c2cccc(C(F)(F)F)c2)S1 :: 94.2

query: State the recorded cell viability for this entry: `O=C1CCc2ccc(OCCCCN3CCN(c4cccc(Cl)c4Cl)CC3)cc2N1`
result: 100

query: State the recorded cell viability for this entry: `CN(C)CCCNC(=O)c1ccc(-c2cc(O)c3ncccc3c2)cc1`
result: 98.5

query: State the recorded cell viability for this entry: `O=c1[nH]cnc2c1ncn2[C@H]1CC[C@@H](CO)O1`
result: 96

query: State the recorded cell viability for this entry: CC(C)NCC(O)COc1ccc(CCOCC2CC2)cc1 (centres undefined)
result: 110

query: State the recorded cell viability for this entry: `Cc1ccc(-c2ncn(-c3ccc(Nc4nccc(-c5cccc(N6CCOCC6)c5)n4)cc3)n2)cn1`
result: 3.87

====

- Test system: P12-Ichikawa
- assay explanation: AUC of viability dose-response curve (% viability x log10 dose units); higher = less sensitive
- assay context: RPMI 5 mM glucose + 10% FBS; 48 h
AUC of viability dose-response curve listing for selected compounds.
Please state the value as a number alone, without comment.

Past entries and their recorded results:
CC1COC2=C3N1\C=C(C(O)=O)/C(=O)C3=CC(=C2N4CCN(C)CC4)F (stereo not given) :: 452
O=C1CCc2ccc(OCCCCN3CCN(c4cccc(Cl)c4Cl)CC3)cc2N1 :: 471
CC(C)c1ccccc1Cc1cc(C(=O)Nc2ccc([S+](=O)([O-])c3ccccc3C(C)(C)C)cc2)c(O)c(O)c1O :: 460
COC1=CC2=C(C=C1OC)[C@H]3[C@@H](CO2)OC4=C(C=CC5=C4\C=C/C(C)(C)O5)C3=O :: 327

Note: attention shifts to another entry.
query: State the recorded AUC of viability dose-response curve for this entry: `COC(=O)[C@@H](N)CCCNC(=N)N[N+](=O)[O-]`
result: 462

====

- System: NOMO1
- assay explanation: cell viability relative to DMSO control; higher = less cytotoxic
- assay context: RPMI 5 mM glucose + 10% dialyzed FBS; 48 h; 15.4 µM
cell viability listing for selected compounds.
Form entry: value (%) — number only.

CC(C)NCC(O)c1ccc(NS(C)(=O)=O)cc1 (stereo unspecified) :: 98.1
O=C1NC(O)CCN1[C@@H]1O[C@H](CO)[C@@H](O)[C@H]1O (stereo partly specified) :: 106
CCN(CC)CCN1C(=O)\C(=N/C2=CC=CC=C12)CC3=CC=C(OC)C=C3 :: 101

query: // fetch NOMO1 cell viability for `CC(C)[C@H](CO)Nc1nc(Nc2cccc(Cl)c2)c2ncn(C(C)C)c2n1`
result: 6.44

query: // fetch NOMO1 cell viability for `COC1=CC2=C(C=C1OC)[C@H]3[C@@H](CO2)OC4=C(C=CC5=C4\C=C/C(C)(C)O5)C3=O`
result: 81.4

query: // fetch NOMO1 cell viability for `NC(=O)c1cccc(N)c1`
result: 106
